Source of measurements: ChEMBL document CHEMBL1156240

ASSAY PROCEDURE: Cytotoxicity against human multidrug-resistant KB-C2 cells after 48 hrs by MTT assay
Assay type: functional, cell-based
TEST CONTEXT: KB-C2, 48 h
PARAMETER MEASURED: pIC50
Please report pIC50 as the negative decimal logarithm of the molar concentration, giving only the number.

{"SMILES STRUCTURE": "CNC(=O)CC(=O)O[C@@H]1CC[C@]2(C)[C@H]3C[C@@H](OC(C)=O)[C@@H]4[C@@H]([C@]5(C)CC[C@H](C(C)(C)O)O5)CC[C@@]4(C)[C@]3(C)CC[C@H]2C1(C)C", "pIC50": 4.37}

Pending compound:
Task: Entry "COc1cccc2c1C(=O)c1c(O)c3c(c(O)c1C2=O)C[C@@](O)(C(C)=O)C[C@@H]3O[C@H]1C[C@H](N)[C@H](O)[C@H](C)O1" needs its pIC50 filled in; supply it.
Output: 4.79

----------
ASSAY PROCEDURE: Cytotoxicity against human multidrug-resistant KB-C2 cells after 48 hrs by MTT assay
Assay type: functional, cell-based
TEST CONTEXT: KB-C2, 48 h
Recorded IC50 by entry

Here's what some known entries look like.
{"SMILES STRUCTURE": "CCOC(=O)CC(=O)O[C@@H]1CC[C@]2(C)[C@H]3CC[C@@H]4[C@@H]([C@]5(C)CC[C@H](C(C)(C)O)O5)CC[C@@]4(C)[C@]3(C)CC[C@H]2C1(C)C", "IC50": "> 100 µM"}
{"SMILES STRUCTURE": "CCCCCCOC(=O)CC(=O)O[C@@H]1CC[C@]2(C)[C@H]3CC[C@@H]4[C@@H]([C@]5(C)CC[C@H](C(C)(C)O)O5)CC[C@@]4(C)[C@]3(C)CC[C@H]2C1(C)C", "IC50": "> 100 µM"}

Task: Read the entry "CCCCCNC(=O)CC(=O)O[C@@H]1CC[C@]2(C)[C@H]3C[C@@H](OC(C)=O)[C@@H]4[C@@H]([C@]5(C)CC[C@H](C(C)(C)O)O5)CC[C@@]4(C)[C@]3(C)CC[C@H]2C1(C)C" and write its reported IC50.
Output: 38.3 µM

Task: Report measured IC50; entry is "CCCCOC(=O)CC(=O)O[C@@H]1CC[C@]2(C)[C@H]3CC[C@@H]4[C@@H]([C@]5(C)CC[C@H](C(C)(C)O)O5)CC[C@@]4(C)[C@]3(C)CC[C@H]2C1(C)C"
Output: > 100 µM

Task: Tell us which IC50 value is on record for "CC(=O)O[C@@H]1C[C@@H]2[C@@]3(C)CC[C@@H](OC(=O)CC(=O)OC(C)C)C(C)(C)[C@@H]3CC[C@@]2(C)[C@]2(C)CC[C@H]([C@]3(C)CC[C@H](C(C)(C)O)O3)[C@@H]12"
Output: > 100 µM

----------
System: KB-C2
ASSAY PROCEDURE: Inhibition of P-gp-mediated multidrug-resistance in human KB-C2 cells assessed as increase in colchicine-induced cytotoxicity at 1 ug/ml after 48 hrs by MTT assay
Type: cell-based
PARAMETER MEASURED: fold change (FC)

Worked cases, answers included:
{"COMPOUND": "CC(=O)O[C@@H]1C[C@@H]2[C@@]3(C)CC[C@@H](OC(=O)CC(N)=O)C(C)(C)[C@@H]3CC[C@@]2(C)[C@]2(C)CC[C@H]([C@]3(C)CC[C@H](C(C)(C)O)O3)[C@@H]12", "fold change (FC)": 2.1}
{"COMPOUND": "CNC(=O)CC(=O)O[C@@H]1CC[C@]2(C)[C@H]3C[C@@H](OC(C)=O)[C@@H]4[C@@H]([C@]5(C)CC[C@H](C(C)(C)O)O5)CC[C@@]4(C)[C@]3(C)CC[C@H]2C1(C)C", "fold change (FC)": 4.7}
{"COMPOUND": "COC(=O)CC(=O)O[C@@H]1CC[C@]2(C)[C@H]3C[C@@H](OC(C)=O)[C@@H]4[C@@H]([C@]5(C)CC[C@H](C(C)(C)O)O5)CC[C@@]4(C)[C@]3(C)CC[C@H]2C1(C)C [METHYL PAPYRIFERATE]", "fold change (FC)": 1.5}
{"COMPOUND": "CC(=O)O[C@@H]1C[C@@H]2[C@@]3(C)CC[C@@H](OC(=O)CC(=O)N(C)C)C(C)(C)[C@@H]3CC[C@@]2(C)[C@]2(C)CC[C@H]([C@]3(C)CC[C@H](C(C)(C)O)O3)[C@@H]12", "fold change (FC)": 2.4}
{"COMPOUND": "CCCNC(=O)CC(=O)O[C@@H]1CC[C@]2(C)[C@H]3C[C@@H](OC(C)=O)[C@@H]4[C@@H]([C@]5(C)CC[C@H](C(C)(C)OC(=O)C(=O)NCCC)O5)CC[C@@]4(C)[C@]3(C)CC[C@H]2C1(C)C", "fold change (FC)": 1.2}

Then this compound:
Task: Specify fold change (FC) for "CCNC(=O)CC(=O)O[C@@H]1CC[C@]2(C)[C@H]3C[C@@H](OC(C)=O)[C@@H]4[C@@H]([C@]5(C)CC[C@H](C(C)(C)O)O5)CC[C@@]4(C)[C@]3(C)CC[C@H]2C1(C)C" , system KB-C2.
Output: 2.6
